# assay.details: HepG2 liver cancer cell viability effects, profiling panel, resazurin fluorescence, 24 h, PK04 Diversity Set (AID 1172); also: test concentration not given here
# particulars: higher = more signal
Lab note: compare z-score against -0.09. Equal or greater, write MET. Smaller, write NOT MET.

query: Would you say CC#CC(=O)Oc1ccccc1C=CC(=O)OCC shows z-score at minimum -0.09?
result: MET

query: Quick check, z-score >= -0.09? NC(=O)N1C(=O)C2C(C1=O)C1C=C(c3ccc(CO)cc3)C2C(c2cccs2)N1Cc1cccc(OC(F)(F)F)c1 (stereo not given)
result: NOT MET

query: Check this compound for z-score at or above -0.09: CCC[C@@H]1C[C@@]1(CCC)[C@@H](NC(=O)c1ccccc1)c1cccc(Cl)c1
result: NOT MET

query: Is the recorded value of z-score equal to or greater than -0.09 for this compound? C=CCC(OC(C)=O)[C@@H]1[C@@H](N(Cc2cc3ccccc3o2)C(=O)c2cccc3ccccc23)c2cc(OCCCO)ccc2N1C(=O)c1ccc(-c2ccccc2)cc1 (stereo not given in full)
result: NOT MET

query: Threshold query (z-score >= -0.09) on CC(C)[Si]1(C(C)C)O[C@@H](c2ccccc2)c2cc(-c3ccc(-c4ccc(Cl)c(Cl)c4)o3)nc(-c3ccccc3)c21
result: NOT MET
